Tested on: HeLa Kyoto;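 further: HeLa Kyoto cells synchronized by double thymidine or nocodazole block, proteins quantified by TMT10plex mass spectrometry, three independent biological replicates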
ASSAY OVERVIEW: melting temperature (median over replicates), in situ; higher = more thermally stable
COND: cell cycle stage: G1/S
Exercise: state measured melting temperature for each of the sequences provided.
Answers are plain numbers, in °C.

Examples with answers:
MDALQLANSAFAVDLFKQLCEKEPLGNVLFSPICLSTSLSLAQVGAKGDTANEIGQVLHFENVKDVPFGFQTVTSDVNKLSSFYSLKLIKRLYVDKSLNLSTEFISSTKRPYAKELETVDFKDKLEETKGQINNSIKDLTDGHFENILADNSVNDQTKILVVNAAYFVGKWMKKFSESETKECPFRVNKTDTKPVQMMNMEATFCMGNIDSINCKIIELPFQNKHLSMFILLPKDVEDESTGLEKIEKQLNSESLSQWTNPSTMANAKVKLSIPKFKVEKMIDPKACLENLGLKHIFSEDTSDFSGMSETKGVALSNVIHKVCLEITEDGGDSIEVPGARILQHKDELNADHPFIYIIRHNKTRNIIFFGKFCSP [SERPINB5] :: 52.3
MAAPPGEYFSVGSQVSCRTCQEQRLQGEVVAFDYQSKMLALKCPSSSGKPNHADILLINLQYVSEVEIINDRTETPPPLASLNVSKLASKARTEKEEKLSQAYAISAGVSLEGQQLFQTIHKTIKDCKWQEKNIVVMEEVVITPPYQVENCKGKEGSALSHVRKIVEKHFRDVESQKILQRSQAQQPQKEAALSS [LSM12] :: 52.3

Now let's try a different one.
### Prompt Recorded melting temperature of MVAGSDAGRALGVLSVVCLLHCFGFISCFSQQIYGVVYGNVTFHVPSNVPLKEVLWKKQKDKVAELENSEFRAFSSFKNRVYLDTVSGSLTIYNLTSSDEDEYEMESPNITDTMKFFLYVLESLPSPTLTCALTNGSIEVQCMIPEHYNSHRGLIMYSWDCPMEQCKRNSTSIYFKMENDLPQKIQCTLSNPLFNTTSSIILTTCIPSSGHSRHRYALIPIPLAVITTCIVLYMNGILKCDRKPDRTNSN [CD58] , please.
### Response 55.3
